assayed-system: α3S125Cβ2Q39C receptor (Rattus norvegicus, UniProt P04757+P12390, Q65C/S152C)
Sequence (P04757 26-499 S152C): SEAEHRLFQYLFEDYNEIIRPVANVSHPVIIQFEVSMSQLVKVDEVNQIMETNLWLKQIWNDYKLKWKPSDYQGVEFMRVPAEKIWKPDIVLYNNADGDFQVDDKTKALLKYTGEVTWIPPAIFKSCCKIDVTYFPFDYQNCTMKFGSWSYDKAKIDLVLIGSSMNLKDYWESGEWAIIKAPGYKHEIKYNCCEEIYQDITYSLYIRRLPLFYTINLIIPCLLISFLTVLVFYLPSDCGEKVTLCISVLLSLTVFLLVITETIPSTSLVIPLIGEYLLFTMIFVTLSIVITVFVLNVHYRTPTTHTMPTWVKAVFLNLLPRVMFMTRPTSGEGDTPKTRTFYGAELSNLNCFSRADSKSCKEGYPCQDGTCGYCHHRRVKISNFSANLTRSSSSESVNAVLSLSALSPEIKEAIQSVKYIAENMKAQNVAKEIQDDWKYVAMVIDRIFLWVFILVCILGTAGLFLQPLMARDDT
Sequence (P12390 25-500 Q65C): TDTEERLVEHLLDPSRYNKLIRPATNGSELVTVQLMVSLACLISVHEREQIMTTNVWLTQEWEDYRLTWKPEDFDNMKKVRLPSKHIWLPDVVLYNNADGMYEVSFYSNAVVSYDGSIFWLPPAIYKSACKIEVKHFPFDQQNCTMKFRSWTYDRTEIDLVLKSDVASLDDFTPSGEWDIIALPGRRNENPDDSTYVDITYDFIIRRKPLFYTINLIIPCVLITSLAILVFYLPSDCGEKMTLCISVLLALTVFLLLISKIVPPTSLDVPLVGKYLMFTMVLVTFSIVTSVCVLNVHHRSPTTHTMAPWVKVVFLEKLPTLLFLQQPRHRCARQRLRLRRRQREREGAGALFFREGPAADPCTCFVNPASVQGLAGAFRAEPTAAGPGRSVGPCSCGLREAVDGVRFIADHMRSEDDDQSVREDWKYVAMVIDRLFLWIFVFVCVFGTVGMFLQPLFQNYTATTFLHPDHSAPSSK
measurement-notes: Macroscopic evoked currents, two-electrode voltage-clamp, Xenopus laevis oocytes
quantity-kind: pEC50
Friendly reminder that pEC50 comes from taking -log10 of the concentration in mol/L.

Reported pEC50 ( `Cc1ccsc1C=CC1=NCCCN1C.O=C(O)C(O)C(O)C(=O)O` ) = 6.28

----------
assayed-system: α3β2A127Y receptor (Rattus norvegicus, UniProt P04757+P12390, A153Y)
Sequence (P04757 26-499): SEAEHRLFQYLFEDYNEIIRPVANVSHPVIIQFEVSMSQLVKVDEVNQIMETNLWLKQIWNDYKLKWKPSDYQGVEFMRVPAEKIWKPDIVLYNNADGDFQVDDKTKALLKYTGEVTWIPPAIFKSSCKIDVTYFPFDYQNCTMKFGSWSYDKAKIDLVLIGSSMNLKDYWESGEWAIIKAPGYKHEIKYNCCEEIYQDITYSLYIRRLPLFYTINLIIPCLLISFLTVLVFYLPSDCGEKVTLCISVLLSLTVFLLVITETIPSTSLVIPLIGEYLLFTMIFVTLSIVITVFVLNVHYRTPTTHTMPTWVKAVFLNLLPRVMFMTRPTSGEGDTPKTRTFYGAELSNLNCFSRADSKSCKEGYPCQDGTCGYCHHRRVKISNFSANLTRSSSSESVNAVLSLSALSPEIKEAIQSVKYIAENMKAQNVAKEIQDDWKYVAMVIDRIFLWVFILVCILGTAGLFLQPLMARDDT
Sequence (P12390 25-500 A153Y): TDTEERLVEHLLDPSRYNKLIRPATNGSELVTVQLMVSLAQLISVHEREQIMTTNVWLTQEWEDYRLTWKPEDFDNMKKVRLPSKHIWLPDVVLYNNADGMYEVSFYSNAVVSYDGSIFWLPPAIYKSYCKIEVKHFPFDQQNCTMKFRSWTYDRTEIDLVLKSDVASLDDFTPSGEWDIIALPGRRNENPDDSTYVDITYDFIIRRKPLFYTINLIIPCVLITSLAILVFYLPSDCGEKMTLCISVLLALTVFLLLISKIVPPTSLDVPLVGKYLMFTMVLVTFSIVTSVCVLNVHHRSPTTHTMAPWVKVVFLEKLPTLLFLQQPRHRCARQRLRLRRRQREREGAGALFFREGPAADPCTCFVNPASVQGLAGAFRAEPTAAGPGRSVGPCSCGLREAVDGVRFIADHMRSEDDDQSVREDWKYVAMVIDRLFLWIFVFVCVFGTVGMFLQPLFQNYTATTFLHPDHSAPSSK
measurement-notes: Macroscopic evoked currents, two-electrode voltage-clamp, Xenopus laevis oocytes
quantity-kind: pEC50
Friendly reminder that pEC50 comes from taking -log10 of the concentration in mol/L.

Reported pEC50 ( `Cc1ccsc1C=CC1=NCCCN1C.O=C(O)C(O)C(O)C(=O)O` ) = 5.32

----------
assayed-system: α3S125Cβ2 receptor (Rattus norvegicus, UniProt P04757+P12390, S152C)
measurement-notes: Macroscopic evoked currents, two-electrode voltage-clamp, Xenopus laevis oocytes
quantity-kind: pEC50
Friendly reminder that pEC50 comes from taking -log10 of the concentration in mol/L.

Reported pEC50 ( `Cc1ccsc1C=CC1=NCCCN1C.O=C(O)C(O)C(O)C(=O)O` ) = 4.04

----------
assayed-system: α3S125Yβ2W149A receptor (Rattus norvegicus, UniProt P04757+P12390, S152Y/W175A)
measurement-notes: Macroscopic evoked currents, two-electrode voltage-clamp, Xenopus laevis oocytes
quantity-kind: pEC50
Friendly reminder that pEC50 comes from taking -log10 of the concentration in mol/L.

Reported pEC50 ( Cc1ccsc1C=CC1=NCCCN1C.O=C(O)C(O)C(O)C(=O)O [Mor] ) = 4.60

----------
assayed-system: α3S125Yβ2A127Y receptor (Rattus norvegicus, UniProt P04757+P12390, A153Y/S152Y)
Sequence (P04757 26-499 S152Y, one chain of several): as the sequence (P04757 26-499 S152C) above, with C127Y counted along it
measurement-notes: Macroscopic evoked currents, two-electrode voltage-clamp, Xenopus laevis oocytes
Type: cell-based
quantity-kind: EC50
Dear colleague, please send the value followed by its unit.

Reported EC50 ( `Cc1ccsc1C=CC1=NCCCN1C.O=C(O)C(O)C(O)C(=O)O` ) = 1900 nM

src = paper PMC4332533
